- Assay System: anti-H3K4me3 antibody ab8580
- Procedure Summary: peptide microarray binding signal (635 nm), min-max normalized on array (fraction of array maximum); higher = stronger binding
- Protocol Conditions: peptide region: Unmod H2A variant; binder concentration: 1:2,000 dilution
Decide by peptide microarray binding signal: equal to or exceeding 0.003 means T, less means F.

Examples from the recorded data:
Exercise: State whether the measured peptide microarray binding signal reaches 0.003, counting equality as reaching it, for RNDEELNKLLGRV [Unmod H2A variant R N D E E L N K L L G R V]
Key: F

Exercise: State whether the measured peptide microarray binding signal reaches 0.003, counting equality as reaching it, for GAGAPVYMAAVLE [Unmod H2A variant G A G A P V Y M A A V L E]
Key: T

Exercise: State whether the measured peptide microarray binding signal reaches 0.003, counting equality as reaching it, for VTIAQGGVLPNIQ [Unmod H2A variant V T I A Q G G V L P N I Q]
Key: T

Exercise: State whether the measured peptide microarray binding signal reaches 0.003, counting equality as reaching it, for QGGKARAKSKSRS [Unmod H2A variant Q G G K A R A K S K S R S]
Key: F

New cases:
Exercise: State whether the measured peptide microarray binding signal reaches 0.003, counting equality as reaching it, for QGGKARAKAKTRS [Unmod H2A variant Q G G K A R A K A K T R S]
Key: F

Exercise: State whether the measured peptide microarray binding signal reaches 0.003, counting equality as reaching it, for YLTAEILELAGNA [Unmod H2A variant Y L T A E I L E L A G N A]
Key: F

Exercise: State whether the measured peptide microarray binding signal reaches 0.003, counting equality as reaching it, for IQAVLLPKKTESH [Unmod H2A variant I Q A V L L P K K T E S H]
Key: F

Exercise: State whether the measured peptide microarray binding signal reaches 0.003, counting equality as reaching it, for LAAVLEYLTAEIL [Unmod H2A variant L A A V L E Y L T A E I L]
Key: F

Exercise: State whether the measured peptide microarray binding signal reaches 0.003, counting equality as reaching it, for GVLPNIQAVLLPK [Unmod H2A variant G V L P N I Q A V L L P K]
Key: F
